Entry source: paper PMC13226657

TARGET_DESC: SLC1A1g (Homo sapiens, UniProt P43005, N178T/N195T)
Sequence (P43005 whole entry N178T/N195T): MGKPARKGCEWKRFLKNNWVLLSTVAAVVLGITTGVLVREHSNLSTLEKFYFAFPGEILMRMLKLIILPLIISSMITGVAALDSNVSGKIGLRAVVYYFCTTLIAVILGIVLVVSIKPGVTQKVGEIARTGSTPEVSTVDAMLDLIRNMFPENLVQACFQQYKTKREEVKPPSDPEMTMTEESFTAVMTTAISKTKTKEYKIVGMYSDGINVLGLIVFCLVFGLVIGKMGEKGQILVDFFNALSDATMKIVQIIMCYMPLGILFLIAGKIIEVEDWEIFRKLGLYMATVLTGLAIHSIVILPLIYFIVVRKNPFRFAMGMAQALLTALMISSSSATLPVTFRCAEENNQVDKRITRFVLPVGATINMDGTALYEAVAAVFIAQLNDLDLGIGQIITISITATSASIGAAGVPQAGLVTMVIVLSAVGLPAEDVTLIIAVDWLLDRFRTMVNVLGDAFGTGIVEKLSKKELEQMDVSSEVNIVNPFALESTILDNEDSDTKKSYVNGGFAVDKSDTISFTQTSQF
ASSAY_PROTOCOL: cell-based
PROTOCOL_CONDITIONS: IC50, L-Asp uptake, 100 mM Na+ (saturating)

- COMPOUND_STRING: "Cc1ccccc1Nc1c(-c2ccco2)nc2c(Br)cccn12"
  IC50: "4.3 µM"
